Values were extracted from ChEMBL document CHEMBL1201862.

System under test: Zinc finger protein mex-5 (Caenorhabditis elegans, UniProt Q9XUB2)
Sequence (Q9XUB2 whole entry): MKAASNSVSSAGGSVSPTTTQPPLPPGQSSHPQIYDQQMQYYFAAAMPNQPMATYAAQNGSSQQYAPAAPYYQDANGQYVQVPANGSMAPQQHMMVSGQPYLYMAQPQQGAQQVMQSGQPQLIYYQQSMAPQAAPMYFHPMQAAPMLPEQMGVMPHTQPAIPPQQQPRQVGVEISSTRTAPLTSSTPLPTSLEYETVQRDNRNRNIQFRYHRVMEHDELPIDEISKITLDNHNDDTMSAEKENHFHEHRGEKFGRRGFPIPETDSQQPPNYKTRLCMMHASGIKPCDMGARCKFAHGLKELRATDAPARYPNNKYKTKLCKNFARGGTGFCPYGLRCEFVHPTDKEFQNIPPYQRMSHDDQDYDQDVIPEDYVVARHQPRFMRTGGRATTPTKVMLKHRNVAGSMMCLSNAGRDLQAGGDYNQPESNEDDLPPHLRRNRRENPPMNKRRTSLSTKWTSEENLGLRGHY
Assay method text: potency of MEX-5 RNA-binding blockers – biochemical, C. elegans, fluorescence polarization, dose response (AID 1960)
Active and inactive are the calls of the source. No stated cut-off is given here; in the data, actives have a measured EC50 and inactives only a lower limit.
Some compounds, each annotated with its measured EC50.
Measurement kind: EC50

Compound: CCOC(=O)Cc1csc(NC(=O)c2sc3nc4cc(C)ccc4cc3c2N)n1
Meas value: 1.62 µM (inconclusive)
--
Compound: NC(=O)c1c(NC(=O)c2c(F)cccc2F)sc2c1CCN(Cc1ccccc1)C2
Meas value: > 300 µM (not active)
--
Compound: CCCN1CCc2cc(O)cc3c2[C@H]1Cc1ccc(O)c(O)c1-3
Meas value: > 300 µM (inconclusive)
--
Compound: O=C(CCc1ccc(O)c(O)c1)N/N=C/c1cc2c(cc1[N+](=O)[O-])OCO2
Meas value: 6.35 µM (active)
--
Compound: O=C(CC1Nc2ccccc2NC1=O)Nc1cc(Cl)cc(Cl)c1 (stereo not given)
Meas value: > 300 µM (not active)
--
Compound: CN1C[C@H](CO)C=C2c3cccc4[nH]cc(c34)C[C@H]21
Meas value: 53.2 µM (inconclusive)
--
Compound: COc1ccc(OC)c(/N=C/c2c(O)oc3ccccc3c2=O)c1
Meas value: > 300 µM (inconclusive)
--
Compound: CC(=O)c1c(C(C)=O)c(C)n(-c2ccc(C(=O)O)cc2)c1C
Meas value: > 300 µM (not active)
--
Compound: Cc1cc(C(F)(F)F)c2c(N)c(C(=O)Nc3cc(C)on3)sc2n1
Meas value: 39.2 µM (active)
--
Compound: N/C(=N\N=C/c1ccc(-c2ccc(O)c(C(=O)O)c2)o1)N[N+](=O)[O-]
Meas value: 26.1 µM (active)

* * *

Some compounds, each annotated with its measured EC50.
System under test: Luciferin 4-monooxygenase (Photinus pyralis, UniProt P08659)
Sequence (P08659 whole entry): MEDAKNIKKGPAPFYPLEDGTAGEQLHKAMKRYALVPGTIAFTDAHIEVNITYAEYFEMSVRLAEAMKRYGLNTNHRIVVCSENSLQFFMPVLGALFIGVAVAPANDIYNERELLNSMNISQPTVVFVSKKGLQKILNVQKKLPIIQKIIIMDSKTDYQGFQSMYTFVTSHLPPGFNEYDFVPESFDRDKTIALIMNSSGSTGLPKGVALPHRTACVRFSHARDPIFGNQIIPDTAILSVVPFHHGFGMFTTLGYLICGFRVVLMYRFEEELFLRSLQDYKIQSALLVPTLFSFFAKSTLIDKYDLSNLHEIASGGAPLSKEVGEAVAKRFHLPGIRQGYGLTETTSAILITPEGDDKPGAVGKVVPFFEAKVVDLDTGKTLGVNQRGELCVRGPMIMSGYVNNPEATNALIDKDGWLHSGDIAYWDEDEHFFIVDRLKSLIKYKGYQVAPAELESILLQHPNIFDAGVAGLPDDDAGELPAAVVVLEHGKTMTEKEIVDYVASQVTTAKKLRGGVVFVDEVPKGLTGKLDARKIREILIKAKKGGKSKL
Assay method text: inhibition of purified Photinus pyralis luciferase – biochemical, luminescence, dose response (AID 1891)
The source made the active and inactive calls. Rule as the data show it: actives have a measured EC50 and inactives only a lower limit.

Compound: CCOC(=O)c1sc(NC(=O)c2sccc2C)cc1C
EC50: 0.409 µM (active)
--
Compound: Cc1ccc(S(=O)(=O)/N=C(\c2ccc(F)cc2)n2c(C)nc3ccccc32)cc1
EC50: > 112 µM (not active)
--
Compound: COc1ccc(OC)c(CNC(=O)c2coc(=O)c3ccccc23)c1
EC50: > 112 µM (not active)
--
Compound: Cc1ccc2c(c1)COc1c3ccc(C(=O)N4CCOCC4)cc3nn1-2
EC50: 29.6 µM (active)
--
Compound: COc1ccc(-c2nc(C[S+]([O-])CC(=O)NCc3ccco3)c(C)o2)cc1 (stereo not given)
EC50: > 112 µM (not active)
--
Compound: Cc1cc(NC(=O)CSCC(=O)Nc2ccccc2N2CCCCC2)no1
EC50: > 112 µM (not active)
--
Compound: O=C(/C=C/c1ccc([N+](=O)[O-])cc1)NCc1cccs1
EC50: > 112 µM (not active)
--
Compound: CN(C)c1ccc(N/C=C/C(=O)c2ccc(F)cc2)cc1
EC50: 0.816 µM (active)
--
Compound: CC(=O)c1cnc2c(-c3ccc(Cl)cc3)c(C)nn2c1C
EC50: > 112 µM (not active)
--
Compound: CCCCCN(C(=O)CCC(=O)OCC(=O)N1C(C)CCCC1C)c1c(N)n(CCCC)c(=O)[nH]c1=O (stereo not given)
EC50: > 112 µM (not active)
--
Compound: Cc1cccc(CCNC(=O)c2cc(S(=O)(=O)N3CCCC3)cn2C)c1
EC50: > 112 µM (not active)
--
Compound: CCn1c(C(=O)N2CCC(C(=O)NCCCSC3CCCCC3)CC2)cc2sccc21
EC50: 25 µM (active)
--
Compound: Cn1nc(C(=O)Nc2nc3ccc(S(C)(=O)=O)cc3s2)ccc1=O
EC50: 3.18 µM (active)
--
Compound: CN(C)c1ccc(N/C=C/C(=O)c2ccccc2)cc1
EC50: 0.654 µM (active)
--
Compound: Cc1ccc(Cl)c(OCC(=O)Nc2ccccc2C(=O)NC2CC2)c1
EC50: > 112 µM (not active)
